Quick reference: RP-LC retention time of the listed items.
# run description: gradient 5% acetonitrile 3 min, to 50% in 2 min, to 85% in 15 min, held 3 min, 100 µL/min
# run conditions: column: Zorbax Extend-C18 2.1 x 50 mm; eluents: water / acetonitrile, 0.1% formic acid

>  <compound>
CCN1C(=O)C2(CCN(S(=O)(=O)c3ccc(C)c(Cl)c3)CC2)c2ccccc21

>  <RP-LC retention time [s]>
1170

$$$$
>  <compound>
O=C(c1ccc(-c2cncnc2)nc1)N1CCN(c2ccccc2Cl)CC1

>  <RP-LC retention time [s]>
829

$$$$
>  <compound>
Cc1ccc(NC(=O)c2sc3nc[nH]c(=O)c3c2C)c(C)c1

>  <RP-LC retention time [s]>
725

$$$$
>  <compound>
O=C(Nc1ccccc1)Nc1ccc2nnc(C3CC3)n2c1

>  <RP-LC retention time [s]>
703

$$$$
>  <compound>
Fc1ccc(CN2CCCCC2c2nc(-c3cnccn3)no2)c(F)c1 (centres undefined)

>  <RP-LC retention time [s]>
738

$$$$
>  <compound>
COc1ccc(NC(=O)c2nnc(CSCC(=O)NCCc3c[nH]c4ccccc34)s2)cc1

>  <RP-LC retention time [s]>
859

$$$$
>  <compound>
Cc1ccc(NC(=O)C2CCCN(c3nccnc3Sc3ccc(C)cc3)C2)cc1 (centres undefined)

>  <RP-LC retention time [s]>
1200

$$$$
>  <compound>
Cc1cc(S(=O)(=O)N2CCCC(Cn3cnc4cccnc43)C2)ccc1Cl (centres undefined)

>  <RP-LC retention time [s]>
866

$$$$
>  <compound>
Cc1cc(C)c(S(=O)(=O)N2CCN(C(=O)c3ccc4c(c3)OCO4)CC2)c(C)c1

>  <RP-LC retention time [s]>
912

$$$$
